measurement_target: Ba/F3-KDR-transfected cells (Homo sapiens)
Construct: BAF3-KDR (MIN IL3) pIC50; other: minus IL3
Sequence (P35968 whole entry, change not shown): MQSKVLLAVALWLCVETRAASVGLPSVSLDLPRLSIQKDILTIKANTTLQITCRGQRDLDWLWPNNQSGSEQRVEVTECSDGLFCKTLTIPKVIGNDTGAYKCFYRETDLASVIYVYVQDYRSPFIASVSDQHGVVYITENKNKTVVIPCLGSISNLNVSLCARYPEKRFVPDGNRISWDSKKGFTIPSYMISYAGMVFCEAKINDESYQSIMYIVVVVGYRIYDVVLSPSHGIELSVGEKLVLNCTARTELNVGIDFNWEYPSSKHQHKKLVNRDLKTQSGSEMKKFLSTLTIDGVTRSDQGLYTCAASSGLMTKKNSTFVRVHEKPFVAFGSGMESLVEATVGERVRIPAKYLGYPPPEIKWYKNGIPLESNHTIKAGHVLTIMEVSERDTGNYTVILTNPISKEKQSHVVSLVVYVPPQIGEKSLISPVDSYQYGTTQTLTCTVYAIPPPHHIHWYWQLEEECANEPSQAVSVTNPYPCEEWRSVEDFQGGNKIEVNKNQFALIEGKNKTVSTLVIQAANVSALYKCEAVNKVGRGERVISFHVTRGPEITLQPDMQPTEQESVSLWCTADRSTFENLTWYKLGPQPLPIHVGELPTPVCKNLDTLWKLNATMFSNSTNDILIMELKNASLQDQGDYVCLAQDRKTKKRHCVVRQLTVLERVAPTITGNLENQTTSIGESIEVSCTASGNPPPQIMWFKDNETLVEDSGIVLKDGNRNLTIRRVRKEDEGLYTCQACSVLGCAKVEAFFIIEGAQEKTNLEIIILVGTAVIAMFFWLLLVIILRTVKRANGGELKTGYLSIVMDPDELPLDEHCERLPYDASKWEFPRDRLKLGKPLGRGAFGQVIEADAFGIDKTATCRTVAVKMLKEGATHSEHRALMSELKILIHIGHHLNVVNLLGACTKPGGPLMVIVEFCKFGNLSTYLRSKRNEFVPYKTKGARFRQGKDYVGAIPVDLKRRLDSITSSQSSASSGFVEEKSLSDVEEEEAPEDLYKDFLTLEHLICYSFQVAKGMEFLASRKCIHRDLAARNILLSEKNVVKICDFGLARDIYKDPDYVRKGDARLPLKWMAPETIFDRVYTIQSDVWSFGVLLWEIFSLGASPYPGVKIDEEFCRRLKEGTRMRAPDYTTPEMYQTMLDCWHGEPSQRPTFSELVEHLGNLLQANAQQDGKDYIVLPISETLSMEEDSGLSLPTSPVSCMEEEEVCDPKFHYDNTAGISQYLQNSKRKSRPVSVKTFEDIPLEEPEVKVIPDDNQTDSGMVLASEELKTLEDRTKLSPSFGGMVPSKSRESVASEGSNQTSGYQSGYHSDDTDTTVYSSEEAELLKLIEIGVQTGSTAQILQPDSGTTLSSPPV
experiment_notes: Ba/F3-KDR (minus IL3) cellular proliferation assay, Alamar Blue
Format: cell-based
experimental_readout: BAF3-KDR (MIN IL3) pIC50
The answer should be written as a number, with no unit following it.

Answered examples (10):
INSERT INTO measurements (compound, val) VALUES
  ('COc1cc(OC)cc(N(Cc2c[nH]nn2)c2ccc3ncc(-c4cnn(C)c4)nc3n2)c1', 5.53),
  ('COc1cc(OC)cc(N(Cc2ncc[nH]2)c2ccc3ncc(N4CCOCC4)nc3n2)c1', 5.31),
  ('COc1cc(/N=c2\ccc3ncc(-c4cnn(C)c4)nc3n2CC2CCC(=O)N2CCO)c(F)c(OC)c1 (single isomer, unassigned) [Compound 219]', 6.38),
  ('COc1cc(OC)c(F)c(N(CC2CC(O)C(=O)N2)c2ccc3ncc(-c4cnn(C)c4)nc3n2)c1 (stereo not drawn)', 5.12),
  ('COc1cc(/N=c2\ccc3ncc(-c4cnn(C)c4)nc3n2CC2CCOC2)c(F)c(OC)c1 (single isomer, unassigned)', 6.40),
  ('COc1cc(/N=c2\ccc3ncc(-c4cnn(C)c4)nc3n2CC(C)(C)O)c(F)c(OC)c1', 5.83),
  ('COc1cc(OC)c(F)c(/N=c2\ccc3ncc(-c4cnn(C)c4)nc3n2CC(O)COC(C)C)c1F (stereo not drawn)', 6.31),
  ('COc1cc(OC)c(F)c(N(CCN)c2ccc3ncc(-c4cnn(C)c4)nc3n2)c1', 5.57),
  ('COc1cc(OC)c(F)c(N(Cc2cn[nH]c2)c2ccc3ncc(-c4cnn(C)c4)nc3n2)c1', 6.21),
  ('COc1cc(OC)c(F)c(N(Cc2c[nH]c(C)n2)c2ccc3ncc(-c4cnn(C)c4)nc3n2)c1', 6.19);

Give BAF3-KDR (MIN IL3) pIC50 for the following compound: COc1cc(OC)cc(N(CC(O)C(F)(F)F)c2ccc3ncc(-c4cnn(C)c4)nc3n2)c1 (single isomer, unassigned) [Compound 33]
5.26

Give BAF3-KDR (MIN IL3) pIC50 for the following compound: COc1cc(/N=c2\ccc3ncc(-c4cnn(C)c4)nc3n2CCN2CCOCC2)cc(OC)c1
6.17

Give BAF3-KDR (MIN IL3) pIC50 for the following compound: COc1cc(OC)c(F)c(N(C)c2ccc3ncc(-c4cnn(C)c4)nc3n2)c1F (single isomer, unassigned)
5.98

====

Catalogue of IC50 values
measurement_target: FGFR1 (h) (Homo sapiens, UniProt P11362)
Sequence (P11362 22-822): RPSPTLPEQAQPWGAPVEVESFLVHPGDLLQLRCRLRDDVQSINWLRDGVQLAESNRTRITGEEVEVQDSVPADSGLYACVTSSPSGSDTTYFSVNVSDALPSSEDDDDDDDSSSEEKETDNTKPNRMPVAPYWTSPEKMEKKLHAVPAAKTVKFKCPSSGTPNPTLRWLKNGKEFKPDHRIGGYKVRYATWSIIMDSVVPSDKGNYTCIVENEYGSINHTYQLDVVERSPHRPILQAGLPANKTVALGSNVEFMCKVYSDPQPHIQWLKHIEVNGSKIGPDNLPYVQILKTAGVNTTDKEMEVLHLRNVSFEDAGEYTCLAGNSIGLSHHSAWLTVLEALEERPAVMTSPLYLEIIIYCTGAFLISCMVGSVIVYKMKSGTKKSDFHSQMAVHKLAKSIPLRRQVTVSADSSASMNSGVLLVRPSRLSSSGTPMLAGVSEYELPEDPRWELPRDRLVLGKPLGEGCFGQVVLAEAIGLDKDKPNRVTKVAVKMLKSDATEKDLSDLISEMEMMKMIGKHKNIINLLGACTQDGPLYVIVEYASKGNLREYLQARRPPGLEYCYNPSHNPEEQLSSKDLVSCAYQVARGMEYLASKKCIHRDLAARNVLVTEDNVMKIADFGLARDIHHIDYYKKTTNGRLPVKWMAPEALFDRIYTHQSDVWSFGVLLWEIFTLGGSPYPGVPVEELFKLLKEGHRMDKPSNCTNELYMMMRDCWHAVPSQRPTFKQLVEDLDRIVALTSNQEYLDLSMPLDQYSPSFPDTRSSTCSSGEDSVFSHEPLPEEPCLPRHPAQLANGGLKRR
experiment_notes: FGFR1 (enzymatic assay), TR-FRET
Format: biochemical
condition_notes: read-out: FGFR 1 pIC50 (converted)
Please reply with the bare figure in nM and do not write the unit itself.

Answered examples (3):
INSERT INTO results (smiles_text, measurement_target, val) VALUES
  ('COc1cc(/N=c2\ccc3ncc(-c4cnn(C)c4)nc3n2Cc2cnn(C)c2)c(F)c(OC)c1', 'FGFR1 (h) (Homo sapiens, UniProt P11362)', 0.407),
  ('COc1cc(OC)c(F)c(N(Cc2nc(CO)c[nH]2)c2ccc3ncc(-c4cnn(C)c4)nc3n2)c1', 'FGFR1 (h) (Homo sapiens, UniProt P11362)', 0.813),
  ('COc1cc(OC)c(F)c(N(Cc2nn[nH]n2)c2ccc3ncc(-c4cnn(C)c4)nc3n2)c1', 'FGFR1 (h) (Homo sapiens, UniProt P11362)', 11.7);

Next, consider the following compound.
Report IC50 from FGFR1 (h) (Homo sapiens, UniProt P11362) testing of COc1cc(/N=c2\ccc3ncc(-c4cnn(C)c4)nc3n2CCN2CCOCC2)cc(OC)c1
1.51

Origin of measurements: patent US9309242B2
